# Test system: N2a (Mus musculus)
# TEST DESCRIPTION: Cytotoxicity against mouse N2a/APPsw cells assessed as cell viability at 1 uM after 24 hrs by MTT assay relative to control
MEASUREMENT NAME: viability at 24 h, 1 µM (%)
Give the value, in units of %, as a plain number.

Looking for the measured viability at 24 h, 1 µM of "CCC(C#N)(CC)c1ccc(-c2ccccc2)c(F)c1" , can you help?
97.3

Could you do the same for N#CC(F)c1ccc(-c2ccc(F)cc2)c(F)c1 (stereo unspecified) , please?
69.4

Next compound up: O=C(O)C(O)c1ccc(-c2ccccc2)c(F)c1 (stereo unspecified)
101

How about this compound: N#CC(F)c1ccc(-c2ccccc2)c(F)c1 (stereo unspecified)
93.1

Also check O=C(O)C(O)c1ccc(-c2ccc(F)cc2)c(F)c1 (stereo unspecified)
99.7

// same read-out, input: "O=C(O)C1(c2ccc(-c3ccc(F)cc3)c(F)c2)CC1"
102

# iterate: "NC(=O)C(F)(F)c1ccc(-c2ccccc2)c(F)c1"
102

Same read-out for "NC(=O)C(F)(F)c1ccc(-c2ccc(F)cc2)c(F)c1" ?
95.9

Next compound up: O=C(O)C(F)c1ccc(-c2ccccc2)c(F)c1 (stereo unspecified)
98.7

And what about the compound "CCC(CC)(C(=O)O)c1ccc(-c2ccccc2)c(F)c1" ?
95.5

// repeat for "CCC(C#N)(CC)c1ccc(-c2cccc3ccccc23)c(F)c1" and report
91.6

---

For each of the compounds below, state its level, % of control at 10 µM.
# Tested on: RAW264.7
# TEST DESCRIPTION: Antiinflammatory activity against mouse RAW264.7 cells assessed as LPS-induced nitrate production at 10 uM treated 30 mins before LPS challenge measured after 24 hrs by Griess reagent method relative to control
// note: answer is a bare numeric in %

Recorded level, % of control at 10 µM for "COc1ccc2c(c1)c(CNCCO)c(C)n2C(=O)c1ccc(Cl)cc1" , please?
52.5

Then "CCNC(=O)CC1=C/C(=C/c2ccc(SC)cc2)c2ccc(F)cc21" ?
80.4

Further, for CC1=C(CC(=O)O)c2cc(F)ccc2/C1=C\c1ccc([S+](C)[O-])cc1 (centres undefined) ?
85.7

And what about the compound O=C(O)C(O)c1ccc(-c2ccccc2)c(F)c1 (centres undefined) ?
59

Then NC(=O)C(F)c1ccc(-c2ccc(F)cc2)c(F)c1 (centres undefined) ?
74.7

Now consider "NC(=O)C(F)(F)c1ccc(-c2ccccc2)c(F)c1" .
82.2

Next record, please: "O=C(O)CC1=C/C(=C/c2ccc(C(F)(F)F)cc2)c2ccc(F)cc21"
29.2

C[S+]([O-])c1ccc(/C=C2/C=C(CC(=O)O)c3cc(F)ccc32)cc1 (centres undefined) , same question.
91.6

And for O=C(O)C(F)c1ccc(-c2ccccc2)c(F)c1 (centres undefined) ?
81.5

Same read-out for "CSc1ccc(/C=C2/C=C(CC(=O)O)c3cc(F)ccc32)cc1" ?
47.5

Please give the result for "NC(=O)C(F)(F)c1ccc(-c2ccc(F)cc2)c(F)c1" too.
84.1

Same lookup for "CSc1ccc(/C=C2/C=C(CC(=O)NCc3ccccc3)c3cc(F)ccc32)cc1" , please.
58.4

Now the compound "COc1ccc2c(c1)c(CC(=O)Nc1ccc(Cl)cc1)c(C)n2C(=O)c1ccc(Cl)cc1"
68.6

Likewise for "N#CC(F)(F)c1ccc(-c2ccc(F)cc2)c(F)c1" ?
75.7

Please answer likewise for "COc1ccc2c(c1)c(CC(=O)O)c(C)n2C(=O)c1ccc(Cl)cc1"
70.9

Same question for CC(C(=O)O)c1ccc(-c2ccccc2)c(F)c1 (centres undefined) please.
80.7

Now try N#CC(F)c1ccc(-c2ccc(F)cc2)c(F)c1 (centres undefined) .
65.3

Entry to check: "COc1ccc2c(c1)c(CC(=O)O)cn2C(=O)c1ccc(Cl)cc1"
65.9

Also check "CCC(C#N)(CC)c1ccc(-c2cccc3ccccc23)c(F)c1"
91.3

How about O=C(O)C(O)c1ccc(-c2ccc(F)cc2)c(F)c1 (centres undefined) ?
76.3

Same question, "O=C(O)C1(c2ccc(-c3ccc(F)cc3)c(F)c2)CC1" this time
86.4

Subsequent entry: "O=C(O)CC1=C/C(=C/c2ccc(SC(F)(F)F)cc2)c2ccc(F)cc21"
1.7

Same read-out for "COc1ccc2c(c1)c(CC(=O)NCCc1cccnc1)c(C)n2C(=O)c1ccc(Cl)cc1" ?
100

Would you mind doing CC(F)(C(=O)O)c1ccc(-c2ccccc2)c(F)c1 (centres undefined) as well?
80.8
